- TARGET_UNDER_TEST: T1, human TREM2-Fc (human, UniProt Q9NZC2 19-174)
- T1 construct: also called hTREM2; not shown: Fc part (captured by anti-human IgG1 Fc or protein A)
- T1 sequence: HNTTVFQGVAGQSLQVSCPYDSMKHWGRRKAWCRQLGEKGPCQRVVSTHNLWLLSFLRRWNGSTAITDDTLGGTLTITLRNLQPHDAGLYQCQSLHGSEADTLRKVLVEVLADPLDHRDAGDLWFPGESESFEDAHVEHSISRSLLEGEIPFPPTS
- ASSAY_COMMENT: SPR (Biacore T200), 37 C; TREM2-Fc on anti-human IgG1 Fc chip, Fab in solution
MEASUREMENT_TYPE: Kd (nM)
Form entry: value (nM) — number only.

• 3.10C2 Fab (Fab, V domains shown, also called 3.10C2 (3.10C2); Rat3.10C2) VH: EVQLVETGGSLVQPGKSLKLTCATSGFPFSNVWMHWVRQSPEKQLEWIAHIKAKSDNYATYYAESVKGRFTISRDDSKTSIYLQMNSLKEDDTAIYYCTGLDYWGQGVMVTVSS VL: DTVLTQAPLSLSVTPGESASISCRSSKSLLGVRDITSLYWYLQKPGKSPQLLIYRMSNLASGVPDRFSGSGSETDFTLKISEVETEDVGVYYCAQFLRYPYTFGPGTKLELK = 0.2

Now consider the entry below.
Quote Kd reported for Para.09 Fab with the 3.18E5 light chain (Fab, V domains shown, also called Para.09 (3.18E5)) VH: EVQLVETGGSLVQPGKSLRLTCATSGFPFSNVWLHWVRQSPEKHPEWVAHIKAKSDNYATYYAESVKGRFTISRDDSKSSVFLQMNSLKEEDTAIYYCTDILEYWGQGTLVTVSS VL: DTVLTQAPLSVSVTPGESASISCRSNKSLLGIRDITSLYWYLQKPGKSPQLLIYRMSNLASGVPDRFSGSGSETDFTLKISEVETEDVGVYYCAQFLRYPYTFGPGTKLELK please.
0.005

Source of measurements: patent US20220389097A1
